Target: T1, recombinant human IL-27 (human, UniProt Q14213 21-229; Q8NEV9 29-243)
T1 construct: Bought from R&D Systems (Cat. 2526-IL); also called hIL-27; rhIL-27
T1 sequence 1: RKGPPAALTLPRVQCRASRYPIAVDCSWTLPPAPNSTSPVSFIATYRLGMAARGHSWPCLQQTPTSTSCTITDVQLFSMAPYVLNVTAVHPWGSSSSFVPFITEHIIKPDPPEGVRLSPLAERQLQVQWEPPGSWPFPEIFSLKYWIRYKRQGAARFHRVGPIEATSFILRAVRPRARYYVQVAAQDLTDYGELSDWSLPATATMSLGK
T1 sequence 2: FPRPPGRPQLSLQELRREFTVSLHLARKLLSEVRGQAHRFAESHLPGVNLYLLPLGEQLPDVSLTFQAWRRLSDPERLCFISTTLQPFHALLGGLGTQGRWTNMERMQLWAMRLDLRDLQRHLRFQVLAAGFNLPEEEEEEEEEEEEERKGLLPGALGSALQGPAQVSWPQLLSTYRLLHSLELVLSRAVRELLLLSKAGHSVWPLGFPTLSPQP
Test: SPR, hIL-27 on CM5 chip, bivalent analyte model (kd1)
parameter: koff

Ab7.9 (antibody, human IgG1, kappa, V domains shown, human IgG1/kappa) VH: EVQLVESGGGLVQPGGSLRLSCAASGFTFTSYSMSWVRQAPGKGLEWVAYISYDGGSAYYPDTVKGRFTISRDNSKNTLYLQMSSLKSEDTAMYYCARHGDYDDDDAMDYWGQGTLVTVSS VL: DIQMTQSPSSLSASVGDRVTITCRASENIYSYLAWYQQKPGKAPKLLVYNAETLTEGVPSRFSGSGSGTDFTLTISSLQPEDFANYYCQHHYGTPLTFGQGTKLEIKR	0.0028 s⁻¹
Ab7.13 (antibody, human IgG1, kappa, V domains shown, human IgG1/kappa) VH: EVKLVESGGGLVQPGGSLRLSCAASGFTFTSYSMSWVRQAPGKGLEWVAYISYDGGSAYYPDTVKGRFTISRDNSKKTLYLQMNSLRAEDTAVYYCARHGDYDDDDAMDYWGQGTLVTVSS VL: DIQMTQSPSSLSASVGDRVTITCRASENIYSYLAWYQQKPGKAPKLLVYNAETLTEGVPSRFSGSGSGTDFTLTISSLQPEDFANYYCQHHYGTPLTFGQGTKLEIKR	0.0026 s⁻¹
Ab7.8 (antibody, human IgG1, kappa, V domains shown, human IgG1/kappa) VH: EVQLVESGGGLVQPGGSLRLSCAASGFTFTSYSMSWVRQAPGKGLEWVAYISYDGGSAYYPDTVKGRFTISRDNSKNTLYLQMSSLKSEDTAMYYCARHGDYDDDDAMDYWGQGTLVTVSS VL: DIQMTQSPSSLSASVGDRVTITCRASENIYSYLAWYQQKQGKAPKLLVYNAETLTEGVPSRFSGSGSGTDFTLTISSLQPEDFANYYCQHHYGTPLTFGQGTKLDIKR	0.0027 s⁻¹

The reported numbers originate from patent US20190382474A1.
